Reference for the values: the supplement of paper PMC10567573

B1: EPB41L3 (parent)
chain: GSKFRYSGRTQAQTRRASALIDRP

- Variants of: B1
- protocolNotes: protein stability index of a GFP-peptide fusion (GPS, HEK-293T) (PSI 1-6); higher = more stable;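 further: lentivirally expressed fusions sorted by FACS into six bins by GFP to DsRed ratio, PSI derived from sequencing read proportions per bin multiplied by bin number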
- conditionsUsed: c terminus: a fixed tail appended
propertyName: protein stability index
Simply state the number, no unit and no words.

These recorded examples may help you get a feel for the data.
GAKFRYSGRTQAQTRRASALIDRP = 2.66
GSKFRYSGRTQAQTRRASALHDRP = 3.32
GSKFKYSGRTQAQTRRASALIDRP = 2.73

Next item in the queue.
protein stability index reported for this variant GSKFRYSGRTQAQTRRAPALIDRP : 3.73
